Listed below: TGI values for each entry.
tested on: DU-145 prostate; test: NCI tumour cell line growth inhibition, 48 h
Where a SMILES comes first, the peptide text is derived from it. The star is where a group is joined. Boc = CC(C)(C)OC(=O)*

MOLECULE	TARGET OR TEST SYSTEM	TGI
O=C(c1cc(Cl)cc(Cl)c1)N(Cc1cccnc1)C(=S)N(Cc1cccnc1)C(=O)c1cc(Cl)cc(Cl)c1	DU-145 prostate	> 100 µM
COc1ccc(C[n+]2cccc(O)c2)cc1	DU-145 prostate	> 100 µM
COC1=CC(c2ccc[nH]2)=N/C1=C\c1[nH]c(C)c(C(=O)Oc2ccccc2)c1C	DU-145 prostate	> 100 µM
COc1cccc(C2c3cc4c(cc3OC(NNC(N)=O)C2C)OCO4)c1O (stereo not given)	DU-145 prostate	> 100 µM
O=[N+]([O-])c1ccc(Cc2nc3cc4ccccc4cc3[nH]2)cc1C(F)(F)F	DU-145 prostate	57.2 µM
COc1ccc(C(OC(=O)[C@H](O[Si](C)(C)C(C)(C)C)[C@@H](NC(=O)c2ccccc2)c2ccccc2)c2ccc(OC)cc2)cc1	DU-145 prostate	> 100 µM
CC1=NNC(=O)C1C1CC(c2c[nH]c3ccccc23)=NN(c2ccccc2)C1=O (stereo not given)	DU-145 prostate	> 100 µM
CC(=O)Nc1ncc2c(n1)-c1ccccc1OC2c1ccccc1 (stereo not given)	DU-145 prostate	> 100 µM
CCC(CC)c1cc(N[C@H]2CC[C@H](N)C2)n2nccc2n1	DU-145 prostate	> 100 µM
COc1ccc(CN2C(=O)/C(=C\C(=O)c3ccc(OCCN4CCCC4)cc3)c3ccccc32)cc1	DU-145 prostate	5.65 µM
Cc1occc1C(=S)Nc1ccc(Cl)c(C(=O)OCC(C)C)c1	DU-145 prostate	39.8 µM
CCCCC(O)(c1ccccc1)C(O)(c1ccccc1)c1c(F)c(F)c(F)c(F)c1F (stereo not given)	DU-145 prostate	> 100 µM
O=C(CN1CCN(CCN2C(=O)c3cccc4cccc(c34)C2=O)CC1)Nc1ccc2ncsc2c1	DU-145 prostate	19.6 µM
CC(=O)c1cc(CC2Cc3cc4c(cc3C2=O)CCC4)cc2c1CCC2 (stereo not given)	DU-145 prostate	> 100 µM
COc1ccc(NC(=S)C#N)cc1	DU-145 prostate	> 100 µM
CCCCOC(=O)/C=C\C(=O)NC(N)=O	DU-145 prostate	> 100 µM
CC(NC(=O)C1CCCN1C(=O)CNC(=O)OC(C)(C)C)C(=O)O (stereo not drawn) (Boc-Gly-Pro-Ala-OH; configuration not given here)	DU-145 prostate	> 100 µM
Cc1cccc2c(N)c3cccc(C(=O)NCC[N+](C)(C)Cc4ccc(S(C)(=O)=O)cc4)c3nc12	DU-145 prostate	> 100 µM
Cc1cncc(-c2nc(NCCc3c[nH]c4ccccc34)c3ncn(C(C)C)c3n2)c1	DU-145 prostate	22.1 µM
C[C@]12CCCN1CC1=NNC(=O)c3cc(F)cc4[nH]c2c1c34	DU-145 prostate	> 100 µM

====

test system: EKVX NSCLC; assay: NCI tumour cell line growth inhibition, 48 h

SMILES RECORD	TARGET OR TEST SYSTEM	GI50
CCCCOC(=O)/C=C\C(=O)NC(N)=O	EKVX NSCLC	23.1 µM
NC(=O)c1cc(I)ccc1NC(=O)/C=C/c1ccccc1Cl	EKVX NSCLC	1.33 µM
[N-]=[N+]=NCCCn1c2c(c3ccc([N+](=O)[O-])cc3c1=O)C(=O)c1cc(I)ccc1-2	EKVX NSCLC	22 µM
CON=C1C[C@]2(C[C@@H]3C[C@@H](C/C=C(\C)C[C@@H](C)/C=C/C=C4\CO[C@@H]5[C@H](O)C(C)=C[C@@H](C(=O)O3)[C@]45O)O2)O[C@H](/C(C)=C/C(C)C)[C@H]1C	EKVX NSCLC	6.99 µM
NS(=O)(=O)c1ccc(N=Nc2c(O)[nH]c3ccc(C(=O)NCCc4cnc[nH]4)cc23)cc1	EKVX NSCLC	> 25 µM
COc1ccc(N=N/C(=N\NC(=O)c2cc(Br)ccc2O)c2ccc(N(CCC#N)CCC#N)cc2OC)cc1	EKVX NSCLC	> 150 µg/mL
CN1CCN(Cc2ccc(NC(=O)c3cncc(C#Cc4c(N)ncc5c(F)cccc45)c3)cc2C(F)(F)F)CC1	EKVX NSCLC	0.732 µM

====

tested on: SNB-75 CNS; assay: NCI tumour cell line growth inhibition, 48 h

COMPOUND	TARGET OR TEST SYSTEM	TGI
Cc1cncc(-c2nc(NCCc3c[nH]c4ccccc34)c3ncn(C(C)C)c3n2)c1	SNB-75 CNS	21.1 µM
COc1ccc(C2CC(c3ccc(NS(=O)(=O)c4cc([N+](=O)[O-])ccc4C)cc3)=NN2S(=O)(=O)c2cc([N+](=O)[O-])ccc2C)cc1 (stereo unspecified)	SNB-75 CNS	> 100 µM
C=CCOC1CC(n2cnc3c(N)ncnc32)OC1CO (stereo unspecified)	SNB-75 CNS	> 100 µM
COc1ccc(OC)c(N=Cc2cc(OC)c(OC)c(OC)c2)c1	SNB-75 CNS	> 100 µM
CCOC(=O)Nc1ccc2nc(N3CCCCCC3)sc2c1	SNB-75 CNS	> 31.4 µM
COc1ccc(N=N/C(=N\NC(=O)c2cc(Br)ccc2O)c2ccc(N(CCC#N)CCC#N)cc2OC)cc1	SNB-75 CNS	86.8 mg/L
Cc1ccc(N=NN(C)C(C)C(O)Cc2ccccc2)cc1 (stereo unspecified)	SNB-75 CNS	> 100 µM
COC(O)C(=O)c1c2c(cc3c1CCC3)CCC2 (stereo unspecified)	SNB-75 CNS	> 100 µM
CC(NC(=O)C(N)CC(=O)O)C(=O)OC12CC3CC(CC(C3)C1)C2 (stereo unspecified)	SNB-75 CNS	> 100 µM
CN1C(=O)N/C(=C\c2ccc(S(=O)(=O)N/N=C/c3ccccc3)cc2)C1=O	SNB-75 CNS	> 100 µM
Cc1ccc(C(=O)O)c(/C=C2\Cc3cc(C)cc(C)c3C2=O)c1	SNB-75 CNS	> 100 µM
COc1ccc(/C(=C/c2ccc3ccccc3c2)c2nn[nH]n2)cc1OC	SNB-75 CNS	> 100 µM
COC(=O)CC1C2(C)C3=C(C)C(c4ccoc4)CC3OC2C2OC(=O)C3(C)C=CC(=O)C1(C)C23 (stereo unspecified)	SNB-75 CNS	12.3 µM
NC(=O)c1cc(I)ccc1NC(=O)/C=C/c1ccccc1Cl	SNB-75 CNS	25.3 µM
CN1C(=S)CSc2ccccc21	SNB-75 CNS	> 100 µM
Cc1ccc(NC(=O)CC(=O)N2N=C(N3CCCCC3)CC2c2ccccc2)cc1 (stereo unspecified)	SNB-75 CNS	> 100 µM
N#CCCN(C1=NN(C(=O)CC(=O)Nc2ccc(Cl)cc2)C(c2ccccc2)C1)c1ccc(Cl)cc1 (stereo unspecified)	SNB-75 CNS	> 100 µM
Clc1ccc(OCc2nnc3sc(SSc4nn5c(COc6ccc(Cl)cc6)nnc5s4)nn23)cc1	SNB-75 CNS	> 100 µM
CC(=O)N(C)c1cc(NCc2ccccc2)ccc1OCc1ccccc1	SNB-75 CNS	41.5 µM
O=C(CCc1ccc(O)c(O)c1)NCCc1ccccc1	SNB-75 CNS	> 100 µM
O=C(CN(Cc1ccccc1)Cc1ccccc1)N1CCc2c([nH]c3ccccc23)C1c1cccnc1 (stereo unspecified)	SNB-75 CNS	81.9 µM

====

test system: UACC-257 melanoma; test: NCI tumour cell line growth inhibition, 48 h

COMPOUND	RELATION QUALIFIER	TGI, µM
OC(c1ccccc1)C1CC2C=CC1C2 (configuration not stated)	>	100
CCOC(=O)Nc1ccc2nc(N3CCCCCC3)sc2c1	=	97.2
Cn1cnc([N+](=O)[O-])c1Sc1nc2ccccc2o1	=	19.8
Cc1cn(CC2=NC3CCCCC3N2)c(=O)[nH]c1=O (configuration not stated)	>	100
CCCCOC(=O)/C=C\C(=O)NC(N)=O	=	56.7
NS(=O)(=O)c1ccc(N=Nc2c(O)[nH]c3ccc(C(=O)NCCc4cnc[nH]4)cc23)cc1	>	25
Cc1occc1C(=S)Nc1ccc(Cl)c(C(=O)OCC(C)C)c1	=	40.2
COc1cc(-c2cc(-c3cccs3)c(C#N)c(N3CCOCC3)n2)cc(OC)c1OC	=	9.9
O=C(Nc1ccccc1)n1cc(-c2ccccn2)c(N2CCOCC2)n1	>	100
Cc1cc(O)c2c(c1)C(C1OC(CO)C(O)C(O)C1O)c1cc(O)cc(O)c1C2=O (configuration not stated)	>	100
CO[C@H](C(=O)O[C@H]1C(=O)N2CC[C@@H]3CCC[C@H]1C32C)c1ccccc1 (some centres not stated)	>	100
O=C1CNc2cc(N3CCOCC3)ccc2N1	>	100
O=CC1CCC=CC1NC(=O)OCc1ccccc1 (configuration not stated)	>	100
CCC[CH2][Sn]1([CH2]CCC)[O]C(=O)CN=C(C)c2ccccc2[O]1	=	2.2
O=C(NC(=O)c1ccccc1)OC(c1ccccc1)C1CO1 (configuration not stated)	>	100
Cc1ccc(S(=O)(=O)OCC(=O)Nc2ccc(C(=O)O)c(O)c2)cc1	=	200
CCOc1ccc(N2C(=O)NC3(c4ccccc4)N(C)C(=O)N(C)C23c2ccccc2)cc1 (configuration not stated)	>	100
CC(C)(C)C(O)CC(O)(C(F)(F)F)C(F)(F)F (configuration not stated)	>	100
CC(=O)NC(CS)C(=O)O (configuration not stated)	>	100
C=C1C(=O)O[C@@H]2C[C@@H]1CC[C@]1(C)O[C@H]1CC/C(C)=C/CC[C@@]2(C)O	=	31.8
Cc1cc(O[C@@H]2O[C@@H](C)[C@H](O)[C@@H](O)[C@H]2O)c2c3c(c(O[C@@H]4O[C@@H](C)[C@H](O)[C@@H](O)[C@H]4O)cc2c1)C(=O)c1c(O)cccc1C3=O	>	30
COc1ccc2nc3cc(Cl)ccc3c(NCCNCC(O)CO)c2c1 (configuration not stated)	=	12.9
